# System: IL-1β, IL-6, IFN-γ, TNF-α, IL-8, MIP-1α, MCP-1, MIP-1β, RANTES
# Experiment Notes: Cytokine and chemokine assays in cynomolgus monkeys (Example 46)
# Format: in vivo
# Condition Summary: day 55
Strand notation (5' to 3'): a small letter for the sugar, then the base; units joined by * are phosphorothioate-linked, units joined directly phosphodiester-linked; [ ] holds rarer units or linkages, { } end groups; capitals alone tell only the bases. e = 2'-O-(2-methoxyethyl) (MOE); [5mC] = 5-methylcytosine; d = 2'-deoxy (DNA)

Substance	IL-1ß level
ISIS 449709: 3-8-3, 4-8-4, 2-10-2, 3-10-3 or 4-10-4 MOE microwalk gapmer (Table 46) (antisense eG*e[5mC]*eA*e[5mC]*dA*dG*dT*dT*dT*d[5mC]*dT*dG*dG*d[5mC]*eA*eG*eG*e[5mC])	181 pg/mL
ISIS 449710: 3-8-3, 4-8-4, 2-10-2, 3-10-3 or 4-10-4 MOE microwalk gapmer (Table 46) (antisense e[5mC]*eA*e[5mC]*dA*dG*dT*dT*dT*d[5mC]*dT*dG*dG*d[5mC]*eA*eG*eG)	286 pg/mL
ISIS 449711: 3-8-3, 4-8-4, 2-10-2, 3-10-3 or 4-10-4 MOE microwalk gapmer (Table 46) (antisense eA*e[5mC]*dA*dG*dT*dT*dT*d[5mC]*dT*dG*dG*d[5mC]*eA*eG)	146 pg/mL
ISIS 416858: MOE gapmer, nucleobases 1275 to 1318 of SEQ ID NO: 1 (Table 8) (antisense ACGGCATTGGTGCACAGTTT; MOE gapmer, wing and gap sizes not given here)	28 pg/mL
ISIS 449707: 3-8-3, 4-8-4, 2-10-2, 3-10-3 or 4-10-4 MOE microwalk gapmer (Table 46) (antisense e[5mC]*eA*e[5mC]*eA*dG*dT*dT*dT*d[5mC]*dT*dG*dG*e[5mC]*eA*eG*eG)	97 pg/mL
ISIS 445531: 5-8-5 or 6-8-6 MOE microwalk gapmer (Table 44) (antisense eG*eG*e[5mC]*eA*eT*dT*dG*dG*dT*dG*d[5mC]*dA*d[5mC]*eA*eG*eT*eT*eT)	155 pg/mL
ISIS 449708: 3-8-3, 4-8-4, 2-10-2, 3-10-3 or 4-10-4 MOE microwalk gapmer (Table 46) (antisense eA*e[5mC]*eA*dG*dT*dT*dT*d[5mC]*dT*dG*dG*e[5mC]*eA*eG)	131 pg/mL
ISIS 416850: MOE gapmer, nucleobases 1275 to 1318 of SEQ ID NO: 1 (Table 8) (antisense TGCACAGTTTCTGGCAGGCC; MOE gapmer, wing and gap sizes not given here)	106 pg/mL
ISIS 445522: 5-8-5 or 6-8-6 MOE microwalk gapmer (Table 44) (antisense eG*e[5mC]*eA*e[5mC]*eA*dG*dT*dT*dT*d[5mC]*dT*dG*dG*e[5mC]*eA*eG*eG*e[5mC])	341 pg/mL
